viability: recorded values
# Assay Info: SK-BR-3 cell growth inhibitors, pilot screen, 24 h, human (AID 572);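 also: compound exposure lasted between 18 and 24 h rather than exactly 24 h; 100% = carrier-treated control wells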
# Conditions Used: SK-BR-3 viability, CellTiter-Glo luminescence, at 10 µM, hits give low values
Report the value in % with no unit label.

In the examples that follow, each entry is paired with its recorded viability.
CN(C(=O)c1ccccn1)c1nnc(-c2cccnc2)s1 :: 97
CCOc1ccc(-c2cn(S(=O)(=O)c3cccc4nsnc34)nc2N)cc1 :: 117

Request: State its viability for this compound: Cn1c(=N)c(S(=O)(=O)c2ccccc2)cc2c(=O)n3ccccc3nc21
Response: 83.5

Request: State its viability for this compound: O=C(NC1CCCCCC1)C1CCCN(S(=O)(=O)c2cccs2)C1 (stereo unspecified)
Response: 90

Request: State its viability for this compound: CC(C)(C)NCC(O)COc1cccc2c1C[C@H](O)[C@H](O)C2 (stereo partly specified)
Response: 82

Request: State its viability for this compound: CN1CCN(C(=O)NC2CCCN2S(=O)(=O)c2ccc(Cl)cc2)CC1 (stereo unspecified)
Response: 100
